- study-system: Human CD137 ECD (human)
- Sequence (chain, as listed by the source limits assumed): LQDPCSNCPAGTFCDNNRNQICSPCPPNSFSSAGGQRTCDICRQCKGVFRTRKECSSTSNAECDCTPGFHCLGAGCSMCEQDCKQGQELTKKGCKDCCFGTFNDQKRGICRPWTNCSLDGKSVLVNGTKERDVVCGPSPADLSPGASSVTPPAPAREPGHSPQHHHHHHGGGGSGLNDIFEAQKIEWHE
- procedure-text: single mutant vs template dBBDu183H
quantity-measured: fold change of affinity (fold)
Give the number; fold is assumed, so skip it.

1. H183/L072 VH K52I (antibody, name in Kabat numbering, V domains shown) VH: QVQLVESGGGLVQPGRSLRLSCAASGFTFSNAWMHWVRQAPGKGLEWVAQIIDKGNAYAAYYAPSVKGRFTISRDDSKNSIYLQMNSLKTEDTAVYYCHYVHYASASTVLPAFGVDAWGQGTTVTVSS VL: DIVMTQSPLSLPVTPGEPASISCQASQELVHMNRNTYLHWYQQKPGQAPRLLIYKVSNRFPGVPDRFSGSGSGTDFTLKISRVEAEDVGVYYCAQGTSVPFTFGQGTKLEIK: 0

Noted for H183/L072 VH L100dP (antibody, name in Kabat numbering, V domains shown) VH: QVQLVESGGGLVQPGRSLRLSCAASGFTFSNAWMHWVRQAPGKGLEWVAQIKDKGNAYAAYYAPSVKGRFTISRDDSKNSIYLQMNSLKTEDTAVYYCHYVHYASASTVPPAFGVDAWGQGTTVTVSS VL: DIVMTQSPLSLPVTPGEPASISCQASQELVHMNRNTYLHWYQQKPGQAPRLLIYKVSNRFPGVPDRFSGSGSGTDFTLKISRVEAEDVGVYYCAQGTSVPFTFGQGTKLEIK : its fold change of affinity reads 0

For this binder ( H183/L072 VH M34Q (antibody, name in Kabat numbering, V domains shown) VH: QVQLVESGGGLVQPGRSLRLSCAASGFTFSNAWQHWVRQAPGKGLEWVAQIKDKGNAYAAYYAPSVKGRFTISRDDSKNSIYLQMNSLKTEDTAVYYCHYVHYASASTVLPAFGVDAWGQGTTVTVSS VL: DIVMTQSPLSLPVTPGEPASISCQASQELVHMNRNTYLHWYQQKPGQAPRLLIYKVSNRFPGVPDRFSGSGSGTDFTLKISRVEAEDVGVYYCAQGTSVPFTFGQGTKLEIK ), measured fold change of affinity is 0
